- assay.target: CD3E (human, UniProt P07766 23-207)
- Sequence (P07766 23-207): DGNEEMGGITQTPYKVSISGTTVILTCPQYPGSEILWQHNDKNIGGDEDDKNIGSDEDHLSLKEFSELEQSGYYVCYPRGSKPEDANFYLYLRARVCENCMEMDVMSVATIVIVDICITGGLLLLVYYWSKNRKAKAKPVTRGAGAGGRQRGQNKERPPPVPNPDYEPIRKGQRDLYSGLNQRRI
- experiment: cell-based or functional assay
Here, each record is paired with measured CD3E-positive proportion [%] (Avg, n = 2), CD3-stably expressing 293T cells data.
Give the value in % but do not write % after it.

binder	recorded.result
modified TCR ba15 (TCR) TCR alpha: SVCLFTDFDSQTNVSQSKDSDVYITDKTVLDMRSMDFKSNSAVAWSNKSDFACANAFNNSIIPEDTFFPSPESSCDVKLVEKSFETDTNLNFQNLSVIGFRILLLKVAGFNLLMTLRLWSS TCR beta: AKPVTQIVSAEAWGRADCGFTSESYQQGVLSATILYEILLGKATLYAVLVSALVLMAMVKRKDSRG	56.5

[in] Any idea what its CD3E-positive proportion [%] (Avg, n = 2), CD3-stably expressing 293T cells is? The binder is modified TCR ba16 (TCR) TCR alpha: DVYITDKTVLDMRSMDFKSNSAVAWSNKSDFACANAFNNSIIPEDTFFPSPESSCDVKLVEKSFETDTNLNFQNLSVIGFRILLLKVAGFNLLMTLRLWSS TCR beta: AKPVTQIVSAEAWGRADCGFTSESYQQGVLSATILYEILLGKATLYAVLVSALVLMAMVKRKDSRG
[out] 70.7
